Documented IC50 across a set of compounds
system.name: c-Met kinase (recombinant c-Met) (Homo sapiens)
Construct: 0.27 nM recombinant c-Met
protocol.notes: In vitro kinase assay I (homogeneous time-resolved fluorescence tyrosine kinase assay)
experimental.endpoint: IC50

INSERT INTO assay_data (compound, experimental_endpoint, value_reported) VALUES
  ('O=C(Nc1cccc(Cc2nn(-c3cc(F)c(F)c(F)c3)ccc2=O)c1)OCCCN1CCNCC1', 'IC50', '< 100 nM'),
  ('COCCOC(=O)Nc1cccc(Cc2nn(-c3cc(F)cc(C(N)=O)c3)ccc2=O)c1', 'IC50', '< 100 nM'),
  ('Cc1nc(-c2cccc(Cc3nn(-c4cnn(C)c4)ccc3=O)c2)no1', 'IC50', '100 to 1000 nM'),
  ('CCOC(C)(C)c1cnc(-c2cccc(Cc3nn(-c4cnn(C)c4)ccc3=O)c2)nc1', 'IC50', '100 to 1000 nM'),
  ('Cn1cc(-n2ccc(=O)c(Cc3cccc(N4CCCC4=O)c3)n2)cn1', 'IC50', '100 to 1000 nM'),
  ('CC(c1cccc(-c2ncc(N3CCOCC3)cn2)c1)c1nn(-c2cnn(C)c2)ccc1=O (single isomer, unassigned) [Example 244]', 'IC50', '100 to 1000 nM'),
  ('CCOC(=O)Nc1cccc(Cc2nn(-c3cnn(CC4CCOCC4)c3)ccc2=O)c1', 'IC50', '100 to 1000 nM'),
  ('CCCCc1nc(-c2cccc(Cc3nn(-c4cnn(C)c4)ccc3=O)c2)ncc1OCC', 'IC50', '< 100 nM'),
  ('O=c1ccn(-c2ccccc2)nc1Cc1cccc(-c2ncccn2)c1', 'IC50', '100 to 1000 nM'),
  ('O=C(Nc1cccc(Cc2nn(-c3ccc(F)c(F)c3)ccc2=O)c1)OCCN1CCOCC1', 'IC50', '< 100 nM'),
  ('Cn1cc(-n2ccc(=O)c(Cc3cccc(NC(=O)OCC(F)(F)CN4CCOCC4)c3)n2)cn1', 'IC50', '< 100 nM'),
  ('CCn1cc(-n2ccc(=O)c(Cc3cccc(-c4ncc(COC)cn4)c3)n2)cn1', 'IC50', '< 100 nM'),
  ('COCCNc1ccnc(-c2cccc(C(C)c3nn(-c4cnn(C)c4)ccc3=O)c2)n1 (single isomer, unassigned)', 'IC50', '100 to 1000 nM'),
  ('COCCOC(=O)Nc1cccc(Cc2nn(-c3cncc(C#N)c3)ccc2=O)c1', 'IC50', '< 100 nM'),
  ('CCOCCOc1cnc(-c2cccc(Cc3nn(-c4cc(F)c(F)c(F)c4)ccc3=O)c2)nc1', 'IC50', '< 100 nM'),
  ('COCC1CCCN(c2cnc(-c3cccc(Cc4nn(-c5cnn(C)c5)ccc4=O)c3)nc2)C1 (racemic)', 'IC50', '< 100 nM'),
  ('CCCn1cnc(-c2cccc(C(C)c3nn(-c4cnn(C)c4)ccc3=O)c2)n1 (single isomer, unassigned) [Example 685]', 'IC50', '< 100 nM');

---

system.name: c-Met kinase (recombinant c-Met) (Homo sapiens, UniProt P08581)
Construct: 0.27 nM recombinant c-Met
Sequence (P08581 25-1390): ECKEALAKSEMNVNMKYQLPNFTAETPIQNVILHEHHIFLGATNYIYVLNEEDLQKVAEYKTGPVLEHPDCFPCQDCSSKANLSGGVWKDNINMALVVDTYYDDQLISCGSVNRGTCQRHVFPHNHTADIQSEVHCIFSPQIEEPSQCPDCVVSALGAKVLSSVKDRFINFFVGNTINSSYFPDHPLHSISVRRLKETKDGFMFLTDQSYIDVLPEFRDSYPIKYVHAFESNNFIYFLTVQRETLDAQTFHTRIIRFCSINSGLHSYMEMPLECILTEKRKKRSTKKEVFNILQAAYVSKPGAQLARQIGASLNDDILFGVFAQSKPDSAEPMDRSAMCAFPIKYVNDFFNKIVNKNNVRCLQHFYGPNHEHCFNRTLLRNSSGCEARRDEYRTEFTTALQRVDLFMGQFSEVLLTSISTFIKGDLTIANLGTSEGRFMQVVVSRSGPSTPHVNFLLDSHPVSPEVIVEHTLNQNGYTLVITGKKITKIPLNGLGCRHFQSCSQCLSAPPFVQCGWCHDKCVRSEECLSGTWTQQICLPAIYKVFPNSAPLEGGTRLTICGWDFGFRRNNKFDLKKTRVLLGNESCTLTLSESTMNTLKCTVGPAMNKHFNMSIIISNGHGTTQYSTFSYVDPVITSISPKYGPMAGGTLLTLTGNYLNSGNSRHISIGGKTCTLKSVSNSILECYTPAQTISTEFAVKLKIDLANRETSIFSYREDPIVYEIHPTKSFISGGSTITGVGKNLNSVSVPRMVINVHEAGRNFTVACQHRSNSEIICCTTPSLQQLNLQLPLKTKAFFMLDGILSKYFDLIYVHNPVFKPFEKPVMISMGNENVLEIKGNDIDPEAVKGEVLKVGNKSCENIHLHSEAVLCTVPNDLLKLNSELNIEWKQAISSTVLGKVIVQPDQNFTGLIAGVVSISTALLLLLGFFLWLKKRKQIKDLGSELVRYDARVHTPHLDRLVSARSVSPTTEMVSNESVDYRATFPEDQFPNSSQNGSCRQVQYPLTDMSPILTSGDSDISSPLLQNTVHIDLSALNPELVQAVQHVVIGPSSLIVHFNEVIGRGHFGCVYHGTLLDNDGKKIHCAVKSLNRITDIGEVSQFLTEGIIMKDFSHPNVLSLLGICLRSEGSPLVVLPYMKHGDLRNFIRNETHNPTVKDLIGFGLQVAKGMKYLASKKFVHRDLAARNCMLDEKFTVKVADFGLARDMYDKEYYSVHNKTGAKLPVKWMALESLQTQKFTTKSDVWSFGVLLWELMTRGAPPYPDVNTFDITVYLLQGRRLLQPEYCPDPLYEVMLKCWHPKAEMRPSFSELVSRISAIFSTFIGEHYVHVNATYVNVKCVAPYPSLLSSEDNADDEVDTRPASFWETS
protocol.notes: In vitro kinase assay I (homogeneous time-resolved fluorescence tyrosine kinase assay)
experimental.endpoint: IC50

INSERT INTO assay_data (compound, experimental_endpoint, value_reported) VALUES
  ('CCOC(=O)Nc1cccc(C(C)c2nn(-c3ccccc3)ccc2=O)c1 (racemic)', 'IC50', '100 to 1000 nM'),
  ('CC(C)CNC(=O)c1cnc(-c2cccc(Cc3nn(-c4cnn(C)c4)ccc3=O)c2)nc1', 'IC50', '< 100 nM'),
  ('COCCOc1cnc(-c2cccc(Cc3nn(-c4ccc(F)c(F)c4)ccc3=O)c2)nc1', 'IC50', '< 100 nM'),
  ('CCOC(=O)Nc1cccc(Cc2nn(-c3cnn(CC(F)(F)F)c3)ccc2=O)c1', 'IC50', '< 100 nM'),
  ('N#Cc1cccc(-n2ccc(=O)c(Cc3cccc(NC(=O)OCC4CCOCC4)c3)n2)c1', 'IC50', '< 100 nM'),
  ('CC(C)COC(=O)Nc1cccc(Cc2nn(-c3cnn(CCC(=O)NC4COC4)c3)ccc2=O)c1', 'IC50', '< 100 nM'),
  ('CCCOC(=O)Nc1cccc(Cc2nn(-c3cc(F)cc(F)c3)ccc2=O)c1', 'IC50', '< 100 nM'),
  ('O=c1ccn(-c2ccc(F)c(F)c2)nc1Cc1cccc(-c2ncc(OCC3CCOC3)cn2)c1 (racemic) [Example 328]', 'IC50', '< 100 nM'),
  ('COCCCOc1cnc(-c2cccc(Cc3nn(-c4cc(F)c(F)c(F)c4)ccc3=O)c2)nc1', 'IC50', '< 100 nM'),
  ('CCOc1cnc(-c2cccc(Cc3nn(-c4cnn(C5CN(C)C5)c4)ccc3=O)c2)nc1', 'IC50', '100 to 1000 nM'),
  ('O=c1ccn(-c2ccc(F)c(F)c2)nc1Cc1cccc(-c2ncc(OCC3COCCO3)cn2)c1 (single isomer, unassigned) [Example 345]', 'IC50', '< 100 nM'),
  ('Cc1nccc(-c2cccc(Cc3nn(-c4cnn(C)c4)ccc3=O)c2)n1', 'IC50', '1000 to 3000 nM'),
  ('CCn1cc(-n2ccc(=O)c(C(C)c3cccc(-c4ncc(OCc5ccccc5)cn4)c3)n2)cn1 (single isomer, unassigned) [Example 229]', 'IC50', '< 100 nM');

Origin of values: patent US20120264735A1
